- assayed system: human IRAK4 (Homo sapiens (Human), UniProt Q9NWZ3)
- Sequence (Q9NWZ3 whole entry): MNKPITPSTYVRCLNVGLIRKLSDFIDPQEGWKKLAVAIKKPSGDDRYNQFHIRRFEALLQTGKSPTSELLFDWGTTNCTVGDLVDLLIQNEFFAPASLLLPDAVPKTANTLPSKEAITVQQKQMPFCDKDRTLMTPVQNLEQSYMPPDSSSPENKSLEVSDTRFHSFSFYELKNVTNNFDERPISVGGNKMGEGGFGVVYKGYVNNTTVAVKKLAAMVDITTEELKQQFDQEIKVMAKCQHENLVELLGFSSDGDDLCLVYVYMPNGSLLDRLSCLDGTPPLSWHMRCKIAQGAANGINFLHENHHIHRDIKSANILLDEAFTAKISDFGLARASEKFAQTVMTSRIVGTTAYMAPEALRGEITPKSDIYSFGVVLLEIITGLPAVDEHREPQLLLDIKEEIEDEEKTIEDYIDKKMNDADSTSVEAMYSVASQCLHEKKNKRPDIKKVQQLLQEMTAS
- assay notes: IRAK4 kinase inhibition, Transcreener fluorescence polarization (ADP detection)
- experimental conditions: recombinant full-length His6-IRAK4 1.25 nM; 125 μM ATP; 125 μM peptide; 90 min; Ki computed using ATP Km 642 μM
pKi: −log10 of the molar value.
Would you please tag the item YES when its pKi is 8 or above, and NO when it is below?

Is reported pKi greater than or equal to 8 here: CC(C)Oc1cccc(C(=O)Nc2cc3c(cc2N(C)C)C(=O)N(C[C@@H](F)C(C)(C)O)C3)n1
NO

# check: pKi of CC(C)(O)[C@H](F)CN1Cc2cc(NC(=O)c3cccc(C(F)(F)F)n3)c(N3CCOCC3)cc2C1=O is greater than or equal to 8
YES

* * *

- assayed system: human IRAK4 (Homo sapiens (Human), UniProt Q9NWZ3)
- assay notes: IRAK4 kinase inhibition, Transcreener fluorescence polarization (ADP detection)
- experimental conditions: recombinant full-length His6-IRAK4 1.25 nM; 125 μM ATP; 125 μM peptide; 90 min; Ki computed using ATP Km 642 μM
property: pKi
Quick note: pKi means taking -log10 of the concentration in moles per liter.

Reported pKi ( CC(C)(O)[C@H](F)CN1Cc2cc(NC(=O)c3ccc[nH]c3=O)c(N3CCOCC3)cc2C1=O ) = 8.09

Short answer for Cn1cccc(C(=O)Nc2cc3c(cc2N2CCOCC2)C(=O)N(C[C@@H](F)C(C)(C)O)C3)c1=O : pKi was 8.10

Kindly note the recorded pKi for CO[C@@H](C)c1cccc(C(=O)Nc2cc3c(cc2N2CCOCC2)C(=O)N(C[C@@H](F)C(C)(C)O)C3)n1 (racemic) , which is 7.48

* * *

- assayed system: human IRAK4 (Homo sapiens (Human), UniProt Q9NWZ3)
- assay notes: IRAK4 kinase inhibition, Transcreener fluorescence polarization (ADP detection)
- experimental conditions: recombinant full-length His6-IRAK4 1.25 nM; 125 μM ATP; 125 μM peptide; 90 min; Ki computed using ATP Km 642 μM
property: Ki (nM)
Answer format: numeric, nM implied, no suffix.

The recorded Ki for entry C[C@@H]1COCCN1c1nc(C(=O)Nc2cc3c(cc2N2CCOCC2)C(=O)N(C[C@@H](F)C(C)(C)O)C3)co1 (racemic) [Example 16] equals 7

Reported Ki ( CC(C)(O)[C@H](F)CN1Cc2cc(NC(=O)c3cccc(CC(F)(F)F)n3)c(N3CCOCC3)cc2C1=O (racemic) [Example 25] ) = 6.5

Consider C[C@H]1COCCN1c1nc(C(=O)Nc2cc3c(cc2N2CCOCC2)C(=O)N(C[C@@H](F)C(C)(C)O)C3)co1 [Example 10] . Its measured Ki is 7.6
